Source listed as patent US20180057604A1.

- TARGET_OR_TEST_SYSTEM: T1, cyno TfR extracellular domain (analogous construct to human TfR ecd) (cynomolgus monkey, UniProt Q5RDH6 87-760 (Pongo abelii entry))
- T1 construct: also called cynoTfR ecd
- T1 chain: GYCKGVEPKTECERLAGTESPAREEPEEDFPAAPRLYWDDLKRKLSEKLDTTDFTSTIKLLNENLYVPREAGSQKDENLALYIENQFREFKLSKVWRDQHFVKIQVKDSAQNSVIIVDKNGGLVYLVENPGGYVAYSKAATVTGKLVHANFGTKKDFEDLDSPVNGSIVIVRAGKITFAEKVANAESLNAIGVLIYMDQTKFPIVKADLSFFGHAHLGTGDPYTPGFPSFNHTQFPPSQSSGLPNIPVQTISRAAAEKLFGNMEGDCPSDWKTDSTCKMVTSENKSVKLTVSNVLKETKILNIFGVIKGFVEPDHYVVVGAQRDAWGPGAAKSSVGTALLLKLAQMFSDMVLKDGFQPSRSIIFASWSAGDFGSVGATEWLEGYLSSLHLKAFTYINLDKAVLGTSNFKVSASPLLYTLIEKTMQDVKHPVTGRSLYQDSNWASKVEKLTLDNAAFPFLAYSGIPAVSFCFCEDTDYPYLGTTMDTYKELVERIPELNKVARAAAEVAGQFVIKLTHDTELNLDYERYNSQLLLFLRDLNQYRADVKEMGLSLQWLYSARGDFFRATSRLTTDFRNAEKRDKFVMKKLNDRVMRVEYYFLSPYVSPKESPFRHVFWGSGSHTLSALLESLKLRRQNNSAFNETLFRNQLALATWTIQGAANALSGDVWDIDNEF
- ASSAY_EXPLANATION: ELISA, IgG
ENDPOINT_NAME: EC50 (µg/mL)
Unit µg/mL implied. Number only.

Q. Endpoint output: EC50 of Q89A (antibody, V domains shown, also called 15G11.v5 Q89A (CDR-L3) IgG) VH: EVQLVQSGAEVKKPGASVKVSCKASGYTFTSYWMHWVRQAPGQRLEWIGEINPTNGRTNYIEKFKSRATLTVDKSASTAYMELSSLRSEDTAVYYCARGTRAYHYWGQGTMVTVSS VL: DIQMTQSPSSLSASVGDRVTITCRASDNLYSNLAWYQQKPGKSPKLLVYDATNLADGVPSRFSGSGSGTDYTLTISSLQPEDFATYYCAHFWGTPLTFGQGTKVEIK . Value?
A. 0.506

Q. Endpoint output: EC50 of P95A (antibody, V domains shown, also called 15G11.v5 P95A (CDR-L3) IgG) VH: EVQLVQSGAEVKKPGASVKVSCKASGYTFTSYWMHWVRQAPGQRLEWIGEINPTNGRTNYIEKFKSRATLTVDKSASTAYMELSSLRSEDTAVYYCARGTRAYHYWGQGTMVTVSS VL: DIQMTQSPSSLSASVGDRVTITCRASDNLYSNLAWYQQKPGKSPKLLVYDATNLADGVPSRFSGSGSGTDYTLTISSLQPEDFATYYCQHFWGTALTFGQGTKVEIK . Value?
A. 0.0406

Q. Endpoint output: EC50 of L96A (antibody, V domains shown, also called 15G11.v5 L96A (CDR-L3) IgG) VH: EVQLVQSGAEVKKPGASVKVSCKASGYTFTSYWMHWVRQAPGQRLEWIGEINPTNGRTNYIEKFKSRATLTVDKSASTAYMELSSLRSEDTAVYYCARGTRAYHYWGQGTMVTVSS VL: DIQMTQSPSSLSASVGDRVTITCRASDNLYSNLAWYQQKPGKSPKLLVYDATNLADGVPSRFSGSGSGTDYTLTISSLQPEDFATYYCQHFWGTPATFGQGTKVEIK . Value?
A. 0.018

Q. Endpoint output: EC50 of T96A (antibody, V domains shown, also called 15G11.v5 T96A (CDR-H3) IgG; copies: 2 + 2) VH: EVQLVQSGAEVKKPGASVKVSCKASGYTFTSYWMHWVRQAPGQRLEWIGEINPTNGRTNYIEKFKSRATLTVDKSASTAYMELSSLRSEDTAVYYCARGARAYHYWGQGTMVTVSS VL: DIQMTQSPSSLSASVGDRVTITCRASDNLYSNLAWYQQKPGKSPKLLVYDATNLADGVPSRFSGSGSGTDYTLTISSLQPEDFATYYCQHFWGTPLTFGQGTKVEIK . Value?
A. 3.38
